TGT: T1, EsCas13d, nuclease-dead (Eubacterium siraeum, UniProt B0MS50, R295A;H300A;R849A;H854A)
T1 sequence: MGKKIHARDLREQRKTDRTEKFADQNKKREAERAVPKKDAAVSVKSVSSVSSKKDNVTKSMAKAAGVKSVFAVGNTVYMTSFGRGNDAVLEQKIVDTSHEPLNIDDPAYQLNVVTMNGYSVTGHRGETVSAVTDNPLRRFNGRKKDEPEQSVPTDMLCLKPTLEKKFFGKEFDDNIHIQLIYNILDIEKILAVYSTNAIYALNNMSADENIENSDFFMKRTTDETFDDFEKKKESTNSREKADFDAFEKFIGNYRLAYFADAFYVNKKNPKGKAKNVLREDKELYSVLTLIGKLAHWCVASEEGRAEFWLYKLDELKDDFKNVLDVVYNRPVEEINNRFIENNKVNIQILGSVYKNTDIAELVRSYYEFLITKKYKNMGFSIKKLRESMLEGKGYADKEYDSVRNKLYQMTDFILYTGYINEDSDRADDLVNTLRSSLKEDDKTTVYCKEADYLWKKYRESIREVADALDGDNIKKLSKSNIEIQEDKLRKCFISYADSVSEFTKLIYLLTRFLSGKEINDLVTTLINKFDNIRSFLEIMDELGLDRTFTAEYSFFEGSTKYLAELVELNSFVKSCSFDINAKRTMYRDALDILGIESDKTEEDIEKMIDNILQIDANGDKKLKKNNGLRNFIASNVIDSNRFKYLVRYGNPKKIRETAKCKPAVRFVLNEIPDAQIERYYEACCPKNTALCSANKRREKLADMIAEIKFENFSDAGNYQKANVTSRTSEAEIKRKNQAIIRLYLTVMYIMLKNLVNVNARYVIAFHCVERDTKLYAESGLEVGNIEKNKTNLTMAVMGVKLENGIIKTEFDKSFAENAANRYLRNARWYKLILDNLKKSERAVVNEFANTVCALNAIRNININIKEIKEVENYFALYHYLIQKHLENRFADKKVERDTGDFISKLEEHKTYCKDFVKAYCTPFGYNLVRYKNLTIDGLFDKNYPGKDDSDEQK
EXPERIMENT: crRNA (strand 1, pre-loaded); Mg2+; 40 mM Tris-HCl pH 7.5, 150 mM NaCl, 6 mM MgCl2, 1 mM DTT, 0.1% Tween-20, 0.2 mg/ml BSA; 25 C; 10 min per concentration, then washed
TEST_PARAMETERS: tags: His6-TwinStrep-SUMO cleaved; N-terminal SNAP kept (SNAP-Surface 488); label: 3' end held by stalled T7 RNA polymerase
Quick list: Kd per entry.

BINDER	Kd, nM
target 1 insG 3' of 18,insA 3' of 12 (mixed) RNA 1: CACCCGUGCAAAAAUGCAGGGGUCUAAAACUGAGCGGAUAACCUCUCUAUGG RNA 2: GGGAAUGGAUCCACAUCUACGAAUUCGUACCAUAGGAGAGGAUUAUCCGCUCACCGAGAUCGGAAGAGCACACGU	73
target 1 A9U,C21U (mixed) RNA 1: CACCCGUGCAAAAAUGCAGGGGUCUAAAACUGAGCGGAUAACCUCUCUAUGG RNA 2: GGGAAUGGAUCCACAUCUACGAAUUCGUACUAUAGAGAGGUUUUCCGCUCACCGAGAUCGGAAGAGCACACGU	8.7
target 1 C6A,U8G (mixed) RNA 1: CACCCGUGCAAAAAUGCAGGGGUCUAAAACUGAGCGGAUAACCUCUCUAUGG RNA 2: GGGAAUGGAUCCACAUCUACGAAUUCGUACCAUAGAGAGGUUAGCAGCUCACCGAGAUCGGAAGAGCACACGU	12.8
target 3 insC 3' of 3,insA 3' of 2 (mixed) RNA 1: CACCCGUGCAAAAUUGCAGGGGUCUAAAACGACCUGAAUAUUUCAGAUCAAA RNA 2: GGGAAUGGAUCCACAUCUACGAAUUCGUUUUUGAUCUGAAAUAUUCAGGCUACUGCAGAUCGGAAGAGCACACGU	18.6
